Hi there, I'd appreciate the recorded Minimum inhibitory concentrations, MDR S. aureus for every entry that follows.
Tested on: MDR S. aureus
test: microbe, parasite or virus in culture
condition-summary: CLSI broth microdilution; CAMHB with 50 mg/L Ca2+, 10 mg/L Mg2+; 5 × 10^5 CFU/ml; 18 h 37 °C; triplicate; strain KCCM 40510
Ends that are not written are not given here.
Give bare numbers, in µM.

The following substances have reported results that may help.
WLLWIALRKK-NH2 [WCopW]
5
WLVWVWRRR-NH2 [Hybrid-3]
10
WLLLLWRRR-NH2 [AcWL-3]
5
WLLLLLRRR-NH2 [AcWL-1]
10

Next substance, please.
Recorded Minimum inhibitory concentrations, MDR S. aureus for WLVWIWRRR-NH2 [LWCopW29] with MDR S. aureus, please?
5
